test system: K-562 cells; experiment: K-562 cytotoxicity assay, CellTiter 96 Aqueous One, 72 hours; conditions: Homo sapiens, K562, 72 h, read-out: K-562 IC50
READOUT NAME: IC50

Please report the recorded IC50 for Cc1ccc(C(=O)Nc2cc(-n3cnc(COC(N)=O)c3)cc(C(F)(F)F)c2)cc1Nc1nccc(-c2cccnc2)n1 .
< 1 nM

Recorded values, source patent US10045987B2.
